Data origin: patent US20260125382A1

target: CDK9 (Homo sapiens, UniProt P50750); construct: endogenous in cells; host or cells: MDA-MB-231; test: CDK protein degradation activity (Western blotting), CDK9; format: cell-based; details: MDA-MB-231 cells, 1 μM, 16 hours, Western blot
Sequence (P50750 whole entry): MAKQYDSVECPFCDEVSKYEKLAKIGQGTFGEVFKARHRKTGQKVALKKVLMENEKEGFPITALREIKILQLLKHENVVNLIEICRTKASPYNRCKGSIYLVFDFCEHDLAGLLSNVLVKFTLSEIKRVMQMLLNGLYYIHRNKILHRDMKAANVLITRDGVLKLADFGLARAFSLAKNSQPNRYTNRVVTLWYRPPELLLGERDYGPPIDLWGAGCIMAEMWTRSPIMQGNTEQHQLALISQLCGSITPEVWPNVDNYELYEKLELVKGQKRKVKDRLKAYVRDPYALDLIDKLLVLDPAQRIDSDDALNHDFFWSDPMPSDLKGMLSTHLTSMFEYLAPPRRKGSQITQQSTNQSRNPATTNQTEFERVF
EXPERIMENTAL_ENDPOINT: Enzyme degradation CDK9 (% remaining) @ 1 μM (%)
Give a bare numeral; the unit % is implied.

Worked cases, Enzyme degradation CDK9 (% remaining) @ 1 μM given:
O=C1CC[C@H](n2nnc3ccc(N4CCC5(CC4)CC(N4CCN(c6ccc(Nc7ncnc8c7ncn8[C@H]7C[C@@H](NC(=O)Cc8ccccc8)C7)cc6)CC4)C5)cc3c2=O)C(=O)N1	0
O=C1CC[C@H](N2C(=O)c3cccc(N4CCC(CN5CCC(c6ccc(Nc7ncnc8c7ncn8C7CC(NC(=O)Cc8ccccc8)C7)cc6)CC5)CC4)c3C2=O)C(=O)N1 (stereo partly drawn)	0
O=C1CC[C@H](n2nnc3ccc(N4CCC(CN5CCC(CCNc6ncnc7c6ncn7C6CC(NC(=O)Cc7ccccc7)C6)CC5)CC4)cc3c2=O)C(=O)N1 (stereo partly drawn)	20
Cc1cccc(C(=O)N[C@H]2C[C@@H](n3cnc4c(Nc5ccc(N6CCN(C7CC8(CCN(C(=O)C9CN(c%10ccc%11c(c%10)C(=O)N(C%10CCC(=O)NC%10=O)C%11=O)C9)CC8)C7)CC6)cc5)ncnc43)C2)n1 (stereo partly drawn)	0

--- query ---
[ask] Quick check: Enzyme degradation CDK9 (% remaining) @ 1 μM of O=C1CC[C@@H](c2cccc(OCC(=O)N3CCN(CCCN4CCN(c5ccc(Nc6ncnc7c6ncn7C6CC(NC(=O)Cc7ccccc7)C6)cc5)CC4)CC3)c2)C(=O)N1 (stereo partly drawn) ?
[reply] 0
